The origin of these recorded values is PubChem BioAssay.

Biological target: Albumin (Bos taurus) (UniProt P02769)
Sequence (P02769 whole entry, looked up): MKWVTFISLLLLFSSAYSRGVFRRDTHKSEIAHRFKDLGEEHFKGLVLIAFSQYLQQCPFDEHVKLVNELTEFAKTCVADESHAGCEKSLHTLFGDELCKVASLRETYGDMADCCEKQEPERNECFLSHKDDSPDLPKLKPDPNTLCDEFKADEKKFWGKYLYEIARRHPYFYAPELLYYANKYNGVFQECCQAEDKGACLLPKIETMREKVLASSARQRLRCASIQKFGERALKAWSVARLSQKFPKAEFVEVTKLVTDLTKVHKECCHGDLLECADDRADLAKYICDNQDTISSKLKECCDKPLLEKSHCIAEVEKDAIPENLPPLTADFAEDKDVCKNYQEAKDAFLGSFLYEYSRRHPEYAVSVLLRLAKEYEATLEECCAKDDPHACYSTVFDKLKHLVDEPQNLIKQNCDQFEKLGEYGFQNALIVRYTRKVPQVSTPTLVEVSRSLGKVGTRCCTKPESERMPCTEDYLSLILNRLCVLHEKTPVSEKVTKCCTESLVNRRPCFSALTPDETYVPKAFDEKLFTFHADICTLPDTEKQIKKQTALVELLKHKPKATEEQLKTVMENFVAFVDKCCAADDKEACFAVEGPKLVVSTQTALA
Experiment: bovine serum albumin binders on microarray, profiling panel, artefact control for SMM control protein annotation, biochemical, small-molecule microarray, Alexa647 label, 635/667 nm fluorescence (AID 1118);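 further: score merges 667 nm emission intensity and signal-to-noise per printed compound spot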
Settings: BSA-A647 binding, fluorescence 635 nm, higher = more signal
Entry flag: 1 if composite z-score reaches 0.2; -1 if it does not.

Examples with answers:
| COMPOUND | ASSAYED SYSTEM | CLASS LABEL |
| --- | --- | --- |
| C[C@@H]1NC(=O)[C@H](Cc2ccccc2)NC(=O)[C@@]23C(=O)N[C@@H](Cc4ccccc4)C2[C@H](C)[C@@]2(C)O[C@H]2C3/C=C/C/C=C\CNC1=O (some centres not stated) | Albumin (Bos taurus) (UniProt P02769) | -1 |
| COc1ccc(-c2cc3c(c(-c4ccccc4)n2)[Si](C(C)C)(C(C)C)O[C@H]3c2ccccc2)cn1 | Albumin (Bos taurus) (UniProt P02769) | 1 |
| CO[C@H]1COC(=O)[C@H](C)COC(=O)[C@H](Cc2ccccc2)NC(=O)CC=C[C@H]1C | Albumin (Bos taurus) (UniProt P02769) | -1 |

API: the following record is the query input.
Problem: Reported composite z-score at or above 0.2? `C=C[C@H](OC)[C@@H](OC(=O)Nc1ccc(SC)cc1)c1ccc(OC)c(O)c1`
Solution: -1
